Each recorded value in this set is attributed to PubChem BioAssay AID463173.

system: Wild type; assay: S. aureus survival, RN4220 and DeltatarO strains – OD600, teichoic acid synthesis inhibitors, primary screen (AID 463173); details: S. aureus RN4220 wild type/DeltatarO growth, OD600, 18 h, hits give low values, screened at 18.75 µg/mL (by protocol)
Among all 52,000 compounds or so, about 1,700 (3.3%) were called active. This excerpt belongs to a sample that is enriched for actives.
experimental_endpoint: survival (%)
Numbers only, in %.

Solved cases below.
>>> df
                                   compound  experimental_target  recorded_value
0  Cc1ccc2c(=O)c(C(=O)c3cccc(Cl)c3)cn(CC(=O)NC3CCCCC3)c2n1            Wild type             126
1  O=C(Nc1nnc(S(=O)(=O)N2CCc3ccccc32)s1)c1cccc(Cl)c1            Wild type              12
2        CCOc1ccccc1C(=O)Nc1cccc2ccc(C)nc12            Wild type              49
3  COc1cccc(N2CCN(C(=O)CN3CCSc4ccc(S(=O)(=O)N(C)C)cc43)CC2)c1            Wild type              72

Provide the reported survival of each entry below, same order.
1. COc1cc(OC)c(NC(=O)CSc2nccn2C)cc1Cl
2. Cc1nc(SCc2ccccc2Cl)c(C#N)c(C)c1C
3. Cc1ccc(NC(=O)CC(C)S(=O)(=O)c2ccc3c(c2)NC(=O)CO3)c(Cl)c1 (stereo unspecified)
4. Cc1ccc2c(c1)sc1nc(-c3cc4ccccc4oc3=O)cn12
5. O=C(Nc1ccc(Br)cc1F)N1CCC(CN2CCc3ccccc3C2)CC1
6. Cc1nc(SCc2ccc(Cl)cc2)c(C#N)c(C)c1Cl
7. Cc1ccc(Cl)cc1NC(=O)CSc1nc(C)c(C)c(C)c1C#N

1. 75
2. -2
3. 87
4. 76
5. 63
6. 32
7. 86
